Please provide measured melting point for the entries that follow.

Entry Cc1cccc(C)c1N(CC(C)N1C(=O)c2ccccc2C1=O)S(C)(=O)=O (centres undefined) needs its melting point filled in; supply it.
124 to 127 °C

Entry CC=NN(C(=O)c1ccc(Cl)cc1)c1ccc2c(c1)OCO2 needs its melting point filled in; supply it.
140 to 142 °C

Entry CCN(CC)c1ccc(CNc2cc(C(=O)Nc3ccc(F)c(F)c3)ccc2OC)cc1 needs its melting point filled in; supply it.
165 to 167 °C

Entry CCOC(=O)C1=C(C)NC(C=O)=C(C(=O)OCC)C1c1ccccc1Cl (centres undefined) needs its melting point filled in; supply it.
87 to 88 °C

Entry COc1ccc(CCNc2nc3nc(-c4ccco4)nc-3c(N)[nH]2)cc1 needs its melting point filled in; supply it.
220 to 222 °C

Entry CN1CCN(c2cccc3ccc(NC(=O)OCc4ccccc4)cc23)CC1 needs its melting point filled in; supply it.
143 to 144 °C

Entry CN1CC(CCN2CCN(c3ccc(Cl)cc3)CC2)OC1=O (centres undefined) needs its melting point filled in; supply it.
113 to 114 °C

Entry CC(C)c1cc(C(C)C)c(S(=O)(=O)n2cc3c4c(cccc42)C(=O)CC3)c(C(C)C)c1 needs its melting point filled in; supply it.
124 to 130 °C

Entry CC[Si](CC)(Cc1ccc(N(c2ccccc2)c2ccccc2)cc1)Cc1ccc(N(c2ccccc2)c2ccccc2)cc1 needs its melting point filled in; supply it.
115 to 117 °C

* * *

readout.label: melting point

Entry O=C(Nc1cccc2c1C(=O)N(CCC(=O)N1CCN(c3ccncc3)CC1)C2=O)c1ccc(Cl)s1 needs its melting point filled in; supply it.
167 °C

Entry CCCCSC(=S)N1Cc2[nH]c3ccccc3c2CC1CO (stereo not given) needs its melting point filled in; supply it.
60 to 63 °C

Entry CC(C)(C)OC(=O)N1CCC(c2ccc(Nc3nc4c(-c5ccc(F)cc5)cccn4n3)cc2)CC1 needs its melting point filled in; supply it.
88 to 91 °C

Entry Cc1ccc(C)c(SCCC(=O)O)c1 needs its melting point filled in; supply it.
100 to 102 °C

Entry O=S(=O)(O)CC(O)CNCC(O)O (stereo not given) needs its melting point filled in; supply it.
189 to 190 °C

* * *

Please provide measured melting point for the entries that follow.

Entry CCOc1ccccc1C1(Cl)C(=O)Nc2ccc(Cl)cc21 (stereo not given) needs its melting point filled in; supply it.
198 °C

Entry O=Cc1ccc(N(c2ccccc2)c2ccccc2)cc1 needs its melting point filled in; supply it.
129 to 130 °C

Entry CC(C)c1csc(/C=C/c2cc(NC(=O)Cc3ccccc3C(=O)O)ccc2Cl)n1 needs its melting point filled in; supply it.
204 to 206 °C

Entry CCSc1ccc(-c2cccnc2)c2c1C(=O)CC(C)C2 (stereo not given) needs its melting point filled in; supply it.
140 to 142 °C

Entry CC(=O)OC1CSC(Sc2cccc(C#N)c2)C(OC(C)=O)C1OC(C)=O (stereo not given) needs its melting point filled in; supply it.
133 °C

Entry O=C1CCCC1n1nc(-c2c(-c3ccccc3)nn3ccccc23)ccc1=O (stereo not given) needs its melting point filled in; supply it.
167 to 168 °C

Entry CSc1ccc(N2C(=O)N(CC(=O)Nc3c(C(C)C)cccc3C(C)C)C(=O)C23CCOCC3)cc1 needs its melting point filled in; supply it.
240 °C

Entry Oc1ccc(-c2c3ccccc3c(Br)c3sc4ccccc4c23)cc1 needs its melting point filled in; supply it.
211 to 213 °C

Entry NNC(=O)C1=Nc2cccc3c(=O)[nH]nc(c23)N1 needs its melting point filled in; supply it.
> 300 °C

Entry Cc1nc(C)c(-c2[nH]nc3c2C(=O)c2c(NC(=O)NN4CCOCC4)cccc2-3)s1 needs its melting point filled in; supply it.
> 300 °C
